Ref: patent US20190076400A1

# Lookup of reported DOR EC50 keyed by entry
target: δ-opioid receptor (DOR), Human-ORPD1 (human, UniProt P41143 1-372); assay: cell-based or functional assay
Sequence (P41143 whole entry, stated change not applied): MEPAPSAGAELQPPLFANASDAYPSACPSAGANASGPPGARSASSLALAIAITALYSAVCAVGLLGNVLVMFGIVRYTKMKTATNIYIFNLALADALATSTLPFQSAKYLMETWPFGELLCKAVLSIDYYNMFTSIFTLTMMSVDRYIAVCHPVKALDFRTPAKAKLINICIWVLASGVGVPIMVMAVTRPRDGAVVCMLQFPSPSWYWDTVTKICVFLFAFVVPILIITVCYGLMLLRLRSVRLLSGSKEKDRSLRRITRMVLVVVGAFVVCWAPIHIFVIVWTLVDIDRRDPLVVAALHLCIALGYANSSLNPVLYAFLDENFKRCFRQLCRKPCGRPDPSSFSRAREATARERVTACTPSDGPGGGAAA
Square brackets hold non-standard residues; d marks the D form. Dmt = Cc1cc(O)cc(C)c1C[C@H](N)C(=O)O; NMeF = CN[C@@H](Cc1ccccc1)C(=O)O; NMeI = CC[C@H](C)[C@H](NC)C(=O)O; β3hF = N[C@H](CC(=O)O)Cc1ccccc1; NMeV = CN[C@H](C(=O)O)C(C)C; NMeA = CN[C@@H](C)C(=O)O

Recorded results for 3 binders are shown here.
{"columns": ["binder", "measurement kind", "measured"],
 "data": [
  ["H-[Dmt][dD]G[β3hF][NMeV]-OH (SMILES Cc1cc(O)cc(C)c1C[C@H](N)C(=O)N[C@H](CC(=O)O)C(=O)NCC(=O)N[C@H](CC(=O)N(C)[C@H](C(=O)O)C(C)C)Cc1ccccc1) [H-DMT-(D)Asp-G-bhF-N(Me)-Val-OH]", "DOR EC50", "≤ 1 nM"],
  ["H-[Dmt][dD]G[β3hF][NMeF]-OH (SMILES Cc1cc(O)cc(C)c1C[C@H](N)C(=O)N[C@H](CC(=O)O)C(=O)NCC(=O)N[C@H](CC(=O)N(C)[C@@H](Cc1ccccc1)C(=O)O)Cc1ccccc1) [H-DMT-(D)Asp-G-bhF-N(Me)-Phe-OH]", "DOR EC50", "≤ 1 nM"],
  ["H-[Dmt][dT]G[β3hF][NMeI]-OH (SMILES CC[C@H](C)[C@@H](C(=O)O)N(C)C(=O)C[C@H](Cc1ccccc1)NC(=O)CNC(=O)[C@H](NC(=O)[C@@H](N)Cc1c(C)cc(O)cc1C)[C@H](C)O) [H-DMT-(D)Thr-G-bhF-N(Me)-Ile-OH]", "DOR EC50", "≤ 1 nM"]
]}

// field: DOR EC50; key: H-[Dmt][dT]G[β3hF][NMeA]-OH (SMILES Cc1cc(O)cc(C)c1C[C@H](N)C(=O)N[C@@H](C(=O)NCC(=O)N[C@H](CC(=O)N(C)[C@@H](C)C(=O)O)Cc1ccccc1)[C@H](C)O) [H-DMT-(D)Thr-G-bhF-N(Me)-Ala-OH] ; value = ≤ 1 nM
